Target: MMP-9 (Homo sapiens (Human))
Sequence (P14780 107-444): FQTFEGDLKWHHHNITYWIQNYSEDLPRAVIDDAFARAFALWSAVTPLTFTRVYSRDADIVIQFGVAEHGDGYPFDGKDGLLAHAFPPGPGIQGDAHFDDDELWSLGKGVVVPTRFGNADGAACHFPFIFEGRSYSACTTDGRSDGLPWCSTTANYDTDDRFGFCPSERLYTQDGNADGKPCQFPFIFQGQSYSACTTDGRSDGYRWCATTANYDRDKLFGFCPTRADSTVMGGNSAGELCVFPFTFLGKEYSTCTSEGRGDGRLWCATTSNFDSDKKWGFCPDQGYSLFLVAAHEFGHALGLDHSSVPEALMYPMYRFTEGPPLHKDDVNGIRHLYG
Assay: Enzyme inhibition, MMP-9 catalytic domain
Assay type: biochemical
Settings: calculated as 1/koff
// reported residence time per item
Measure: residence time

INSERT INTO assay_data (compound, reported) VALUES
  ('CCOC(=O)Oc1ccc(Oc2ccc(S(=O)(=O)CC3CS3)cc2)cc1 (stereo not shown)', '119 min'),
  ('COC(=O)Nc1ccc(Oc2ccc(S(=O)(=O)CC3CS3)cc2)cc1 (stereo not shown)', '19.6 min'),
  ('O=S(=O)(CC1CS1)c1ccc(Oc2ccc(O)cc2)cc1 (stereo not shown)', '24.5 min'),
  ('CCOC(=O)Nc1ccc(Oc2ccc(S(=O)(=O)CC3CS3)cc2)cc1 (stereo not shown)', '25.6 min');

---

Biological target: MMP-8 (Homo sapiens (Human), UniProt P22894)
Sequence (P22894 100-262): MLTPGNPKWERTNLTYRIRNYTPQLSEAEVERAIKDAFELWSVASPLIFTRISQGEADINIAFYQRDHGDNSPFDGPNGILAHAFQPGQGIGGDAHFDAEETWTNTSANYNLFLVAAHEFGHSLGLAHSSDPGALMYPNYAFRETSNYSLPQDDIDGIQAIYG
pKi: −log10 of the molar value.
Measured pKi by item
Measure: pKi

INSERT INTO results (compound, tested_system, reported) VALUES
  ('COC(=O)Nc1ccc(Oc2ccc(S(=O)(=O)CC3CS3)cc2)cc1 (stereo not shown) [ND-380]', 'MMP-8 (Homo sapiens (Human), UniProt P22894)', 4.89),
  ('CCOC(=O)Nc1ccc(Oc2ccc(S(=O)(=O)CC3CS3)cc2)cc1 (stereo not shown) [ND-394]', 'MMP-8 (Homo sapiens (Human), UniProt P22894)', 4.82),
  ('CCOC(=O)Oc1ccc(Oc2ccc(S(=O)(=O)CC3CS3)cc2)cc1 (stereo not shown) [ND-395]', 'MMP-8 (Homo sapiens (Human), UniProt P22894)', 4.96),
  ('O=S(=O)(CC1CS1)c1ccc(Oc2ccc(O)cc2)cc1 (stereo not shown) [p-OH SB-3CT]', 'MMP-8 (Homo sapiens (Human), UniProt P22894)', 5.59);
